Numbers sourced from PubChem BioAssay AID1963449.

test system: 596521-263-R-J1-PDC complex spheroid growth; experiment: Anticancer human tumor 596521-263-R-J1-PDC patient-derived soft tissue sarcoma cell line growth inhibition [Asc]; conditions: second compound 0.1 µM; first compound 0.1 µM; stronger effect = lower value;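 further: spheroids exposed to compounds for 7 days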
viability, T/C strictly under 80% means TRUE; at 80% or over means FALSE.

compound	class label
O=C(c1cc(Cc2n[nH]c(=O)c3ccccc23)ccc1F)N1CCN(C(=O)C2CC2)CC1 + CNC(C)C(=O)NC1CN(S(=O)(=O)c2cccc(S(=O)(=O)N3CCC4CCC(C(=O)NC(c5ccccc5)c5ccccc5)N4C(=O)C(NC(=O)C(C)NC)C3)c2)CCC2CCC(C(=O)NC(c3ccccc3)c3ccccc3)N2C1=O	TRUE
C=CC(=O)N1CCN(c2nc(=O)n(-c3c(C)ccnc3C(C)C)c3nc(-c4c(O)cccc4F)c(F)cc23)C(C)C1 (stereo not drawn) + Cc1c(S(C)(=O)=O)c(-c2cc(F)cc(N3CCN(c4ccc(NS(=O)(=O)c5ccc(NC(CCN6CCC(C(=O)OCCCP(=O)(O)O)CC6)CSc6ccccc6)c(S(=O)(=O)C(F)(F)F)c5)cc4)CC3)c2)c(-c2ccc(Cl)cc2)n1C(C)C	FALSE
C#Cc1c(F)ccc2cc(O)cc(-c3ncc4c(N5CC6CCC(C5)N6)nc(OCC56CCCN5CC(F)C6)nc4c3F)c12 (stereo not drawn) + CNC(C)C(=O)NC1CN(S(=O)(=O)c2cccc(S(=O)(=O)N3CCC4CCC(C(=O)NC(c5ccccc5)c5ccccc5)N4C(=O)C(NC(=O)C(C)NC)C3)c2)CCC2CCC(C(=O)NC(c3ccccc3)c3ccccc3)N2C1=O	TRUE
O=C(c1ccc(F)c(F)c1Nc1ccc(I)cc1F)N1CC(O)([C@@H]2CCCCN2)C1 + CNC(C)C(=O)NC1CN(S(=O)(=O)c2cccc(S(=O)(=O)N3CCC4CCC(C(=O)NC(c5ccccc5)c5ccccc5)N4C(=O)C(NC(=O)C(C)NC)C3)c2)CCC2CCC(C(=O)NC(c3ccccc3)c3ccccc3)N2C1=O	TRUE
CNC(C)C(=O)NC1CN(S(=O)(=O)c2cccc(S(=O)(=O)N3CCC4CCC(C(=O)NC(c5ccccc5)c5ccccc5)N4C(=O)C(NC(=O)C(C)NC)C3)c2)CCC2CCC(C(=O)NC(c3ccccc3)c3ccccc3)N2C1=O (stereo not drawn) + Cc1c(S(C)(=O)=O)c(-c2cc(F)cc(N3CCN(c4ccc(NS(=O)(=O)c5ccc(NC(CCN6CCC(C(=O)OCCCP(=O)(O)O)CC6)CSc6ccccc6)c(S(=O)(=O)C(F)(F)F)c5)cc4)CC3)c2)c(-c2ccc(Cl)cc2)n1C(C)C	FALSE
COc1c(OCCCN2CCOCC2)ccc2c3n(c(=NC(=O)c4cnc(N)nc4)nc12)CCN3 + Cc1c(S(C)(=O)=O)c(-c2cc(F)cc(N3CCN(c4ccc(NS(=O)(=O)c5ccc(NC(CCN6CCC(C(=O)OCCCP(=O)(O)O)CC6)CSc6ccccc6)c(S(=O)(=O)C(F)(F)F)c5)cc4)CC3)c2)c(-c2ccc(Cl)cc2)n1C(C)C	TRUE

Now consider the entry below.
Hi there! Is viability, T/C for C#Cc1c(F)ccc2cc(O)cc(-c3ncc4c(N5CC6CCC(C5)N6)nc(OCC56CCCN5CC(F)C6)nc4c3F)c12 (stereo not drawn) + Cc1c(S(C)(=O)=O)c(-c2cc(F)cc(N3CCN(c4ccc(NS(=O)(=O)c5ccc(NC(CCN6CCC(C(=O)OCCCP(=O)(O)O)CC6)CSc6ccccc6)c(S(=O)(=O)C(F)(F)F)c5)cc4)CC3)c2)c(-c2ccc(Cl)cc2)n1C(C)C below 80%, do you know? FALSE
